- assayRemarks: yeast growth modulation, basal conditions, primary screen, YJM789 clinical isolate, OD600, 24 h (AID 1089);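 also: growth of clinical yeast isolate S. cerevisiae YJM 789 seeded 1000 cells per well; test concentration not given here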
- assayConditions: S. cerevisiae YJM789 growth, higher = more signal, called active from +8 up or from −8 down
assayReadout: z-score
Output spec: single numeric token, no unit.

O=C1[C@H]2[C@H]3[C@H](O)[C@H](O)CC(=NOC[C@@H](O)COCc4ccco4)[C@@H]3CC[C@H]2C(=O)N1Cc1ccccc1
-0.444

Quick one: z-score for C=CC[C@@H]1C=C[C@H](ON=CC[C@@H]2C=C[C@H](OC(C)=O)[C@@H](COC(C)=O)O2)[C@@H](CO)O1 ?
0.953

Requested read-out: z-score. Entry: COC(=O)[C@H](C)NC(=O)CCC1CC(OC(=O)NCCc2ccc(F)cc2)CC2(CCCC(COC(=O)NCc3ccccc3)O2)O1 (some centres not stated)
0.59

So what's the measured z-score for this one? C[C@@H]1CC[C@H]2C(=O)O[C@@H](COc3ccc(C(C)(C)C)cc3)CN2[C@H]1c1ccc(Br)cc1
0.267

Record request: z-score value, item CC(C)CON=C1C[C@@H](O)[C@@H](O)[C@@H]2[C@@H]3C(=O)N(c4ccc(F)cc4F)C(=O)[C@@H]3CC[C@@H]12
0.0347

Reported z-score for COc1ccc(O[C@H]2C=C[C@@H](c3ccccc3)O[C@@H]2COC(=O)CCC(C)=NOC[C@@H](O)COCc2ccco2)cc1 : what is it?
-1.2

Look up z-score: COc1ccc(O[C@H]2C=C[C@@H](c3ccccc3)O[C@@H]2CON=C(C)CCN2CCCc3nc(C)c(C)cc32)cc1
-0.571

* * *

z-score: recorded values
- assayRemarks: A549 lung cancer cell viability effects, profiling panel, resazurin fluorescence, 24 h, PK04 Diversity Set (AID 1171); also: test concentration not given here
- assayConditions: higher = more signal, called active from +8 up or from −8 down
Please respond with just the number, no unit label.

# input molecule: CC(C)(C)N1C(=O)[C@H]2[C@@H]3C(=CC[C@H]2C1=O)C(=O)[C@H]1O[C@H]1[C@H]3O ; wanted: its z-score
-3.43

* * *

- assayRemarks: small-molecule microarray binders of probe aCHRDL2, primary screen, biochemical, biotinylated probe, 635/667 nm fluorescence (AID 1100)
- assayConditions: higher = more signal
assayReadout: composite z-score

Reference set (7 entries):
CSCC[C@@H]1NC(=O)CC=C[C@@H](C)COC(=O)[C@H](C)COC1=O
-2.03
C=CC[C@@H]1C=C[C@H](ON=C2C[C@@H](O)[C@@H](O)[C@@H]3[C@@H]4C(=O)N(CC)C(=O)[C@@H]4CC[C@@H]23)[C@@H](CO)O1
-0.562
C=CC[C@@H]1C=C[C@H](Oc2ccc(C)cc2)[C@@H](COC(=O)NCc2cccc3ccccc23)O1
0.0944
COC(=O)[C@@H]1CC[C@H](C)[C@@H](c2ccc(Br)cc2)N1
0.321
CC(C)=NOC(C)CN1CCCc2nc(C)c(C)cc21 (stereo not drawn)
-0.696
CO[C@H]1COC(=O)[C@H](C)COC(=O)[C@H](C)NC(=O)CC=C[C@H]1C
-1.42
C[C@@H](c1ccccc1)N1C(=O)[C@H]2[C@H]3[C@H](O)[C@H](O)CC(=NNC(=O)OCc4ccccc4)[C@@H]3CC[C@H]2C1=O
-1.57

Turning now to a further compound:
Endpoint output: composite z-score of O=C(NCCC[N+]1=CC=NC1c1ccccc1)N1CCCc2nc(-c3ccc(Br)cc3)ccc21 (stereo not drawn) . Value?
-0.346
